The measured values listed here are drawn from the supplement of paper PMC3545927.

biological target: furin, P09958; assay: furin cleavage Z-score vs untreated control; higher = more cleavage, active = 3.5 or more, inactive = 1 or less, 8 variable residues between constant flanks; conditions: 15 min;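 further: purified furin at 1:10 enzyme:substrate in 50 mM HEPES pH 7.5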
Sequence (P09958 whole entry): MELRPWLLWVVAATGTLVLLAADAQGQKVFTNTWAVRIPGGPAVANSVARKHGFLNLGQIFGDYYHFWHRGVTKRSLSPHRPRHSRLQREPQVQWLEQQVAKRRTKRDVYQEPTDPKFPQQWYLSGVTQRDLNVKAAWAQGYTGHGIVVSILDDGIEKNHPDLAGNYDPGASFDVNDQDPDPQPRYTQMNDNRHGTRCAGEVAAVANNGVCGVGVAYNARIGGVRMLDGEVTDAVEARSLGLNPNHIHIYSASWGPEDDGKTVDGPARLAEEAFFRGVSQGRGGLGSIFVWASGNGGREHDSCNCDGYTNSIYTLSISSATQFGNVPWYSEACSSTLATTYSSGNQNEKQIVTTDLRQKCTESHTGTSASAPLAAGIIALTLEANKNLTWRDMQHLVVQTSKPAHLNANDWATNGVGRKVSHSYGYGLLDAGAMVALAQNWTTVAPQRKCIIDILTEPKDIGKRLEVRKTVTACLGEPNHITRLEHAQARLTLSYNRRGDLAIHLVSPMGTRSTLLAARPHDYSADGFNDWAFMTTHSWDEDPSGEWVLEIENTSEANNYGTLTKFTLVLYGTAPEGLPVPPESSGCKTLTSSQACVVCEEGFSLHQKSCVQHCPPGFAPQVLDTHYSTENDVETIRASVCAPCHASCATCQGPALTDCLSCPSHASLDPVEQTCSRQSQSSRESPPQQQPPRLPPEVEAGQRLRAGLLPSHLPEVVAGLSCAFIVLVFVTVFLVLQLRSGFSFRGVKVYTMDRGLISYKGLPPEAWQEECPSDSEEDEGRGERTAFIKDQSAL
The list shows a part of the results. How many sequences the whole screen found active is unknown.
furin cleavage Z-score values by entry
Please reply with the value in numeric form only.

Illustrative cases are given below, each with its answer.
{"columns": ["sequence_input", "measured_number"],
 "data": [
  ["CAEVECHRPSAGNASASA [HC2352]", 0.203],
  ["CALATRSFGSAGNASASA [HC1334]", 0.424]
]}

Turning now to a further record.
# sequence CARSKKIFGSAGNASASA [FS-2405] ; its furin cleavage Z-score = -0.175
